Assign ΔTm at 150 µM to each entry below.
target: AQ STING (G230A-R293Q) (Homo sapiens, UniProt Q86WV6, G230A/H232R/R293Q); construct: 8xHis (N, cleaved yes); SUMO (N, cleaved yes); made in house; host or cells: E. coli Rosetta-gami B (DE3); assay: Differential scanning fluorimetry (DSF) with AQ STING; type: binding; conditions: thermal shift vs apoprotein; 150 μM CDN; truncated human AQ STING 0.1 mg/ml
Sequence (Q86WV6 140-343 G230A/H232R/R293Q): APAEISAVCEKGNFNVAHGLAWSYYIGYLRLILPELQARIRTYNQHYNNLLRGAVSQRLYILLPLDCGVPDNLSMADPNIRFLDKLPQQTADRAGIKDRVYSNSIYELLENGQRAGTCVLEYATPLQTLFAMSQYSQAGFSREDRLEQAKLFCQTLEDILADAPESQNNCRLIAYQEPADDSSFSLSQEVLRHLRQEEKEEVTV
Answers are plain numbers, in °C.

Nc1ncnc2c1ncn2[C@@H]1C[C@@H]2COP(=O)(S)O[C@@H]3[C@@H](COP(=O)(S)O[C@H]2[C@H]1F)C[C@@H](n1cnc2c(N)ncnc21)[C@@H]3F (single isomer, unassigned) [Compound 128a] : 14.8
Nc1nc2c(ncn2[C@@H]2O[C@@H]3COP(=O)(S)OC4C(F)[C@H](n5cnc6c(N)ncnc65)C[C@@H]4COP(=O)(S)OC3C2F)c(=O)[nH]1 (stereo partly shown) [Compound 132b] : 26.1
Nc1nc2c(ncn2[C@@H]2O[C@@H]3COP(=O)(S)O[C@@H]4[C@@H](COP(=O)(S)O[C@H]3[C@H]2F)C[C@@H](n2cnc3c(N)ncnc32)[C@@H]4F)c(=O)[nH]1 (single isomer, unassigned) [Compound 132a] : 19.9
Nc1nc2c(ncn2[C@@H]2C[C@@H]3COP(=O)(O)OC4C[C@H](n5cnc6c(N)ncnc65)O[C@@H]4COP(=O)(O)OC3C2O)c(=O)[nH]1 (stereo partly shown) [Compound 106] : 9

Each compound below has a recorded value; state its ΔTm at 150 µM.
1. Nc1ncnc2c1ncn2[C@@H]1C[C@@H]2COP(=O)(O)OC3C(F)[C@H](n4cnc5c(N)ncnc54)O[C@@H]3COP(=O)(O)OC2C1F (stereo partly shown) [Compound 120]
2. Nc1ncnc2c1ncn2[C@@H]1C[C@@H]2COP(=O)(O)OC3C(F)[C@H](n4cnc5c(N)ncnc54)C[C@@H]3COP(=O)(O)OC2C1F (stereo partly shown) [Compound 121]
3. Nc1nc2c(ncn2[C@H]2CC3OP(=O)(O)OC[C@H]4O[C@@H](n5cnc6c(N)ncnc65)C(O)C4OP(=O)(O)OC[C@H]3C2)c(=O)[nH]1 (stereo partly shown) [Compound 115]
4. Nc1nc2c(ncn2[C@@H]2C[C@@H]3COP(=O)(O)OC4C(F)[C@H](n5cnc6c(=O)[nH]c(N)nc65)O[C@@H]4COP(=O)(O)OC3C2O)c(=O)[nH]1 (stereo partly shown) [Compound 122]
5. Nc1ncnc2c1ncn2[C@@H]1C[C@@H]2COP(=O)(S)OC3C(F)[C@H](n4cnc5c(N)ncnc54)O[C@@H]3COP(=O)(S)OC2C1F (single isomer, unassigned) [Compound 102a]
6. Nc1nc2c(ncn2[C@H]2CC3OP(=O)(O)OC[C@H]4C[C@@H](n5cnc6c(N)ncnc65)C(O)C4OP(=O)(O)OC[C@H]3O2)c(=O)[nH]1 (stereo partly shown) [Compound 110]

1: 17; 2: 13.9; 3: 10.5; 4: 9.5; 5: 11.2; 6: 15.7

====

Assign EC50 to each entry below.
Molecular target: WT STING (Homo sapiens, UniProt Q86WV6, H232R)
Sequence (Q86WV6 whole entry H232R): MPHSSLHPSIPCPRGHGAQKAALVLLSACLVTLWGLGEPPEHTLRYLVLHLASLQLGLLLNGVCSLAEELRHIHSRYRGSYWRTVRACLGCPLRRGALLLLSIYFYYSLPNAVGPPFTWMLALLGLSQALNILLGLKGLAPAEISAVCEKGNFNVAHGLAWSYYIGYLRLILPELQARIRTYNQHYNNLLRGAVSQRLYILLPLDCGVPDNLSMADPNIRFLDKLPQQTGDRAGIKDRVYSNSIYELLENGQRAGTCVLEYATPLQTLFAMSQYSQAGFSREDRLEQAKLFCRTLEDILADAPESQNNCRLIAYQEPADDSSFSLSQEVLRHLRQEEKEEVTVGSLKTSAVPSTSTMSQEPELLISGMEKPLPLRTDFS
Assay: 293T WT STING standard reporter assay
Assay type: cell-based
Design: host or cells: 293T (ATCC CRL-3216), stably transfected, with 4xISRE firefly luciferase reporter
Conditions: 293T wtSTING-FL cells, ISRE firefly luciferase; no digitonin; 7 hours with compounds; 8-point curve
Protocol: Two complementary oligonucleotides of the sequence […] […] The medium was removed next day and three-fold serial dilutions of compounds in 100 μl medium were added to the cells. […] After 50 μl of the medium was removed, 30 μl of ONE-Glo™ Luciferase Assay System reagent (cat. #E6120, Promega, Madison, USA) was added to each well and luminescence was read on Synergy H1 (Biotek, Winooski, USA).
One number for each entry, in nM.

Solved entries:
CC(C)(C)C(=O)OCOP1(=O)OC[C@H]2O[C@@H](n3cnc4c(N)ncnc43)C(F)C2OP(=O)(OCOC(=O)C(C)(C)C)OC[C@H]2C[C@@H](n3cnc4c(N)ncnc43)CC2O1 (single isomer, unassigned) [Compound 137b] : 90
CC(C)(C)C(=O)OCOP1(=O)OC[C@H]2O[C@@H](n3cnc4c(N)ncnc43)CC2OP(=O)(OCOC(=O)C(C)(C)C)OC[C@H]2C[C@@H](n3cnc4c(N)ncnc43)C(F)C2O1 (stereo partly drawn) [Compound 139b] : 1
Nc1nc2c(ncn2[C@@H]2O[C@@H]3COP(=O)(S)OC4C(F)[C@H](n5cnc6c(N)ncnc65)C[C@@H]4COP(=O)(S)OC3C2F)c(=O)[nH]1 (stereo partly drawn) [Compound 132b] : 200
CC(C)(C)C(=O)OCOP1(=O)OC[C@H]2C[C@@H](n3cnc4c(N)ncnc43)C(F)[C@H]2OP(=O)(OCOC(=O)C(C)(C)C)OC[C@H]2O[C@@H](n3cnc4c(N)ncnc43)[C@@H](F)C2O1 (single isomer, unassigned) [Compound 136b] : 60
CCCCCCCC(=O)OCOP1(=O)OC[C@H]2O[C@@H](n3cnc4c(N)ncnc43)[C@H](F)[C@@H]2OP(=O)(OCOC(=O)CCCCCCC)OC[C@H]2C[C@@H](n3cnc4c(N)ncnc43)[C@H](F)[C@@H]2O1 (single isomer, unassigned) [Compound 146b] : 0.3

Each molecule below has a recorded value; state its EC50.
1. Nc1ncnc2c1ncn2[C@@H]1C[C@@H]2COP(=O)(O)OC3C(F)[C@H](n4cnc5c(N)ncnc54)C[C@@H]3COP(=O)(O)OC2C1F (stereo partly drawn)
2. CC(C)(C)C(=O)OCOP1(=O)OC[C@H]2O[C@@H](n3cnc4c(N)ncnc43)C(F)C2OP(=O)(OCOC(=O)C(C)(C)C)OC[C@H]2C[C@@H](n3cnc4c(N)ncnc43)CC2O1 (single isomer, unassigned) [Compound 137a]

2600
200

Each molecule below has a recorded value; state its EC50.
1. CC1(C(=O)OCOP2(=O)OC[C@H]3O[C@@H](n4cnc5c(N)ncnc54)[C@H](F)[C@@H]3OP(=O)(OCOC(=O)C3(C)CCCCC3)OC[C@H]3C[C@@H](n4cnc5c(N)ncnc54)[C@H](F)[C@@H]3O2)CCCCC1 (single isomer, unassigned) [Compound 145b]
2. CC(C)(C)C(=O)OCOP1(=O)OC[C@H]2C[C@@H](n3cnc4c(N)ncnc43)C(F)[C@H]2OP(=O)(OCOC(=O)C(C)(C)C)OC[C@H]2O[C@@H](n3cnc4c(N)ncnc43)[C@@H](F)C2O1 (single isomer, unassigned) [Compound 136d]

[1, 10]
